Test system: Microglia
EXPERIMENT NOTES: Anti-inflammatory activity against mouse Microglia cells assessed as reduction in LPS-induced IL-1beta production
Type: functional, cell-based
MEASURED METRIC: IC50 (µM)

Answered cases to consult:
C=C1[C@@H]2[C@H]3OC(=O)[C@@H](CNC(=O)[C@H](CO)CN4CCC[C@H]4C(=O)O)[C@@H]3[C@@H](O)CC(=C)[C@@H]2C[C@@H]1O = 62.6
C=C1[C@@H]2[C@H]3OC(=O)[C@@H](C)[C@@H]3[C@@H](O)CC(=C)[C@@H]2C[C@@H]1O = 54.2

(1) C=C1[C@@H]2[C@H]3OC(=O)[C@@H](C)[C@@H]3[C@@H](O[C@@H]3O[C@H](CO)[C@@H](O)[C@H](O)[C@H]3O)CC(=C)[C@@H]2C[C@@H]1O
(2) C=C1[C@@H]2[C@H]3OC(=O)[C@@H](CN4C=C(C(N)=O)C[C@@H](CO)C4=O)[C@@H]3[C@@H](O)CC(=C)[C@@H]2C[C@@H]1O
QUERY: Hi there! Just curious which has the higher IC50 between 1 and 2 . Pick one; state its label.
RESULT: 2

These measurements were taken from ChEMBL document CHEMBL5120761.
